Origin of the recorded values: paper PMC6152666

# key: entry, value: viability at 24 h, 30 µM
# Experimental protocol: Cytotoxicity assay (MTT) in RAW264.7 cells
# Type: cell-based, mouse
# Stated conditions: mouse, RAW264.7 cells; 30 μM; RAW264.7, MTT, 24 h; vehicle control = 100%; mean ± S.E., n=4; read-out: Cell Viability %
Attribute measured: viability at 24 h, 30 µM (%)

# Compound, Measurement unit, Recorded measurement
measured = [
    ("CC1(C)O[C@H]2CC(=O)OC[C@]23[C@H]2CC[C@@]4(C)[C@H](c5ccoc5)OC(=O)[C@H]5O[C@]54[C@]2(C)C(=O)C[C@@H]13", "%", 99.3),
    ("COC1C=C([C@@H]2OC(=O)[C@H]3O[C@@]34[C@@]2(C)CC[C@@H]2[C@@]3(C)[C@@H](OC(C)=O)CC(=O)OC(C)(C)[C@@H]3CC(=O)[C@]24C)C(=O)O1 (some centres unmarked) [Compound 2, 21,23-dihydro-23-methoxy-21-oxonomilin]", "%", 94.5),
    ("[H]/N=C(/NC)NCCC[C@H](N)C(=O)O [L-NMMA, N^G-monomethyl-L-arginine, acetate, reference compound]", "%", 109),
    ("CC1(C)O[C@H]2CC(=O)OC[C@]23[C@H]2CC[C@@]4(C)[C@H](C5=CCOC5=O)OC(=O)[C@H]5O[C@]54[C@]2(C)C(=O)C[C@@H]13 [Compound 5, 21,23-Dihydro-21-oxolimonin]", "%", 96.6),
    ("COC1C=C([C@@H]2OC(=O)[C@H]3O[C@@]34[C@@]2(C)CC[C@@H]2[C@@]35COC(=O)C[C@@H]3OC(C)(C)[C@@H]5CC(=O)[C@]24C)C(=O)O1 (some centres unmarked) [Compound 4, 21,23-dihydro-23-methoxy-21-oxolimonin]", "%", 91.7),
]

###

Here, each record is paired with measured IC50 data.
# System: NO production in RAW264.7 mouse macrophages stimulated by lipopolysaccharide (LPS)
# Experimental protocol: Inhibitory assay of NO production in LPS-stimulated RAW264.7 macrophages
# Assay type: cell-based
# Stated conditions: Mus musculus; RAW264.7 + LPS 5 μg/mL, 24 h
Attribute measured: IC50

# Compound, Recorded measurement
measured = [
    ("CC1(C)OC(=O)C[C@H](O)[C@]2(C)[C@H]3CC[C@@]4(C)[C@H](c5ccoc5)OC(=O)[C@H]5O[C@]54[C@]3(C)C(=O)C[C@@H]12", "> 30 µM"),
    ("CC1(C)O[C@H]2CC(=O)OC[C@]23[C@H]2CC[C@@]4(C)[C@H](C5=CC(O)OC5=O)OC(=O)[C@H]5O[C@]54[C@]2(C)C(=O)C[C@@H]13 (stereo partly shown)", "> 30 µM"),
    ("CC1(C)O[C@H]2CC(=O)OC[C@]23[C@H]2CC[C@@]4(C)[C@H](c5ccoc5)OC(=O)[C@H]5O[C@]54[C@]2(C)C(=O)C[C@@H]13", "> 30 µM"),
    ("CC(=O)O[C@H]1CC(=O)OC(C)(C)[C@@H]2CC(=O)[C@]3(C)[C@H](CC[C@@]4(C)[C@H](C5=CC(=O)OC5O)OC(=O)[C@H]5O[C@]543)[C@@]12C (stereo partly shown) [Compound 1, 21,23-dihydro-21-hydroxy-23-oxonomilin]", "> 30 µM"),
    ("COC1C=C([C@@H]2OC(=O)[C@H]3O[C@@]34[C@@]2(C)CC[C@@H]2[C@@]3(C)[C@@H](OC(C)=O)CC(=O)OC(C)(C)[C@@H]3CC(=O)[C@]24C)C(=O)O1 (stereo partly shown) [Compound 2, 21,23-dihydro-23-methoxy-21-oxonomilin]", "25.4 µM"),
    ("[H]/N=C(/NC)NCCC[C@H](N)C(=O)O [L-NMMA, N^G-monomethyl-L-arginine, acetate, reference compound]", "23.9 µM"),
    ("CC(C)(O)[C@@H]1CC(=O)[C@]2(C)[C@H](CC[C@@]3(C)[C@H](c4ccoc4)OC(=O)[C@H]4O[C@]432)[C@]12COC(=O)C[C@@H]2O", "> 30 µM"),
    ("COC(=O)CC(OC(C)=O)C1(C)C(C(C)(C)O)CC(=O)C2(C)C1CCC1(C)C(C3=CC(=O)OC3O)OC(=O)C3OC312 (stereo not shown)", "> 30 µM"),
    ("CC1(C)O[C@H]2CC(=O)OC[C@]23[C@H]2CC[C@@]4(C)[C@H](C5=CCOC5=O)OC(=O)[C@H]5O[C@]54[C@]2(C)C(=O)C[C@@H]13 [Compound 5, 21,23-Dihydro-21-oxolimonin]", "> 30 µM"),
    ("COC1C=C([C@@H]2OC(=O)[C@H]3O[C@@]34[C@@]2(C)CC[C@@H]2[C@@]35COC(=O)C[C@@H]3OC(C)(C)[C@@H]5CC(=O)[C@]24C)C(=O)O1 (stereo partly shown) [Compound 4, 21,23-dihydro-23-methoxy-21-oxolimonin]", "> 30 µM"),
]

###

Consider the following molecules and their measured viability at 24 h, 30 µM readings.
# Experimental protocol: Cytotoxicity assay (MTT) in RAW264.7 cells
# Assay type: cell-based, mouse
# Stated conditions: mouse, RAW264.7 cells; 30 μM; RAW264.7, MTT, 24 h; vehicle control = 100%; mean ± S.E., n=4; read-out: Cell Viability %

# Molecule, viability at 24 h, 30 µM
records = [
    ("COC1OC(OC)C2(C3OC(=O)C4OC45C3(C)CCC3C46COC(=O)CC4OC(C)(C)C6CC(=O)C35C)OC12 (centres unmarked) [Compound 9, evolimorutanin]", "97.6%"),
    ("CC1(C)O[C@H]2CC(=O)OC[C@]23[C@H]2CC[C@@]4(C)[C@H](C5=CC(=O)OC5O)OC(=O)[C@H]5O[C@]54[C@]2(C)C(=O)C[C@@H]13 (some centres unmarked) [Compound 7, shihulimonin A]", "100%"),
    ("CC1(C)OC(=O)C[C@H](O)[C@]2(C)[C@H]3CC[C@@]4(C)[C@H](c5ccoc5)OC(=O)[C@H]5O[C@]54[C@]3(C)C(=O)C[C@@H]12 [Compound 11, deacetylnomilin]", "100%"),
    ("COC(=O)CC(OC(C)=O)C1(C)C(C(C)(C)O)CC(=O)C2(C)C1CCC1(C)C(C3=CC(=O)OC3O)OC(=O)C3OC312 (centres unmarked) [Compound 3]", "93.4%"),
    ("CC1(C)O[C@H]2CC(=O)OC[C@]23[C@H]2CC[C@@]4(C)[C@H](C5=CC(O)OC5=O)OC(=O)[C@H]5O[C@]54[C@]2(C)C(=O)C[C@@H]13 (some centres unmarked) [Compound 8, limonexic acid]", "89.3%"),
]

###

# Experimental protocol: Cytotoxicity assay (MTT) in RAW264.7 cells
# Format: cell-based, mouse
# Stated conditions: mouse, RAW264.7 cells; 1 μM; RAW264.7, MTT, 24 h; vehicle control = 100%; mean ± S.E., n=4; read-out: Cell Viability %
Attribute measured: viability at 24 h, 1 µM (%)

# Compound, Recorded measurement
records = [
    ("[H]/N=C(/NC)NCCC[C@H](N)C(=O)O [L-NMMA, N^G-monomethyl-L-arginine, acetate, reference compound]", 102),
    ("COC1C=C([C@@H]2OC(=O)[C@H]3O[C@@]34[C@@]2(C)CC[C@@H]2[C@@]35COC(=O)C[C@@H]3OC(C)(C)[C@@H]5CC(=O)[C@]24C)C(=O)O1 (some centres unmarked) [Compound 4, 21,23-dihydro-23-methoxy-21-oxolimonin]", 103),
    ("CC(=O)O[C@H]1CC(=O)OC(C)(C)[C@@H]2CC(=O)[C@]3(C)[C@H](CC[C@@]4(C)[C@H](C5=CC(=O)OC5O)OC(=O)[C@H]5O[C@]543)[C@@]12C (some centres unmarked) [Compound 1, 21,23-dihydro-21-hydroxy-23-oxonomilin]", 99.1),
    ("CC1(C)OC(=O)C[C@H](O)[C@]2(C)[C@H]3CC[C@@]4(C)[C@H](c5ccoc5)OC(=O)[C@H]5O[C@]54[C@]3(C)C(=O)C[C@@H]12 [Compound 11, deacetylnomilin]", 95.9),
    ("CC1(C)OC(=O)C=C[C@]2(C)[C@H]3CC[C@@]4(C)[C@H](C5=CC(=O)OC5O)OC(=O)[C@H]5O[C@]54[C@]3(C)C(=O)C[C@@H]12 (some centres unmarked) [Compound 10, kihadanin A]", 105),
    ("CC1(C)O[C@H]2CC(=O)OC[C@]23[C@H]2CC[C@@]4(C)[C@H](C5=CC(O)OC5=O)OC(=O)[C@H]5O[C@]54[C@]2(C)C(=O)C[C@@H]13 (some centres unmarked) [Compound 8, limonexic acid]", 98.1),
    ("COC1OC(OC)C2(C3OC(=O)C4OC45C3(C)CCC3C46COC(=O)CC4OC(C)(C)C6CC(=O)C35C)OC12 (centres unmarked) [Compound 9, evolimorutanin]", 101),
    ("CC(C)(O)[C@@H]1CC(=O)[C@]2(C)[C@H](CC[C@@]3(C)[C@H](c4ccoc4)OC(=O)[C@H]4O[C@]432)[C@]12COC(=O)C[C@@H]2O [Compound 12, ichangin]", 101),
]
